Cited source: ChEMBL document CHEMBL3091400

- procedure.summary: Half life in Sprague-Dawley rat at 1 mg/kg, iv
- Type: ADME, organism-based
- Parameters: dose 1 mg/kg, route intravenous
- particulars: in vivo
measured.quantity: half-life (h)
One number for each entry, in h.

What value of measured half-life is listed for Cc1cnc(Nc2ccc(C(=O)Nc3c(C)cccc3C)cc2)nc1-c1ccc(OC(F)(F)F)cc1 ?
10.3

----------
What pIC50 was measured for each of the following?
- tested.target: Sonic hedgehog protein (Mus musculus, UniProt Q62226)
- Sequence (Q62226 25-198 limits assumed): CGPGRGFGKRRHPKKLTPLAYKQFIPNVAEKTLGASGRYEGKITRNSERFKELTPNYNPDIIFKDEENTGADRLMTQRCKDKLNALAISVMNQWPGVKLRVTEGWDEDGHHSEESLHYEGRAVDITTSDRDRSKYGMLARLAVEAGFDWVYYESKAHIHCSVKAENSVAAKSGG
- procedure.summary: Inhibition of SHH signaling pathway in mouse NIH3T3 cells measured after 48 hrs by Gli-luciferase reporter assay
One number for each entry, as −log10 of the molar value.

// solved cases for pIC50 follow
[
  {
    "compound.smiles": "Cc1cnc(Nc2ccc(C(=O)Nc3ccc(CN4CCN(C)CC4)cc3)cc2)nc1-c1ccc(OC(F)(F)F)cc1",
    "tested.target": "Sonic hedgehog protein (Mus musculus, UniProt Q62226)",
    "measured.quantity": "pIC50",
    "test.result": 6.93
  },
  {
    "compound.smiles": "CCCc1cc(-c2ccc(OC(F)(F)F)cc2)nc(Nc2ccc(C(=O)Nc3c(C)cccc3C)cc2)n1",
    "tested.target": "Sonic hedgehog protein (Mus musculus, UniProt Q62226)",
    "measured.quantity": "pIC50",
    "test.result": 9.10
  },
  {
    "compound.smiles": "Cc1cnc(Nc2ccc(C(=O)Nc3c(C)cccc3C)cc2)nc1Cc1ccccc1",
    "tested.target": "Sonic hedgehog protein (Mus musculus, UniProt Q62226)",
    "measured.quantity": "pIC50",
    "test.result": 7.46
  }
]

Now turn to the next compound.
Give the reported pIC50 for Cc1c(C(=O)Nc2ccc(N3C[C@@H](C)O[C@@H](C)C3)nc2)cccc1-c1ccc(OC(F)(F)F)cc1 (system: Sonic hedgehog protein (Mus musculus, UniProt Q62226)).
8.26

----------
- procedure.summary: Half life in Sprague-Dawley rat at 5 mg/kg, po
- Assay type: ADME, organism-based
- Parameters: dose 5 mg/kg, route oral
- particulars: in vivo
measured.quantity: half-life (h)
Numbers only, in h.

What value of measured half-life is listed for Cc1cnc(Nc2ccc(C(=O)Nc3c(C)cccc3C)cc2)nc1-c1ccc(OC(F)(F)F)cc1 ?
7

----------
- tested.target: Sonic hedgehog protein (Mus musculus)
- procedure.summary: Inhibition of SHH signaling pathway in mouse NIH3T3 cells measured after 48 hrs by Gli-luciferase reporter assay
measured.quantity: pIC50
One number for each entry, as −log10 of the molar value.

// solved cases for pIC50 follow
[
  {
    "compound.smiles": "Cc1cccc(C)c1NC(=O)c1ccc(Nc2ncc(C(F)(F)F)c(-c3ccc(OC(F)(F)F)cc3)n2)cc1",
    "pIC50": 9.28
  },
  {
    "compound.smiles": "Cc1cnc(Nc2ccc(C(=O)Nc3c(C)cccc3C)cc2)nc1-c1ccccc1",
    "pIC50": 8.89
  },
  {
    "compound.smiles": "Cc1cnc(Nc2ccc(C(=O)Nc3ccccc3CN3CCN(C)CC3)cc2)nc1-c1ccc(OC(F)(F)F)cc1",
    "pIC50": 6.45
  }
]

Now turn to the next compound.
What value of measured pIC50 is listed for Cc1cnc(Nc2ccc(C(=O)Nc3c(C)cccc3C)cc2)nc1-c1cccc(OC(F)(F)F)c1 ?
8.92

----------
- procedure.summary: Oral bioavailability in Sprague-Dawley rat at 5 mg/kg
- Assay type: ADME, organism-based
- particulars: in vivo
measured.quantity: bioavailability (%)
Give bare numbers, in %.

What value of measured bioavailability is listed for Cc1cnc(Nc2ccc(C(=O)Nc3c(C)cccc3C)cc2)nc1-c1ccc(OC(F)(F)F)cc1 ?
36

----------
- tested.target: UniProtKB Q62226
- procedure.summary: Inhibition of SHH signaling pathway in mouse NIH3T3 cells measured after 48 hrs by Gli-luciferase reporter assay
- Assay type: cell-based
What IC50 was measured for each of the following?

[
  {
    "compound.smiles": "Cc1cnc(Nc2ccc(N3C[C@@H](C)O[C@@H](C)C3)nc2)nc1-c1ccc(OC(F)(F)F)cc1",
    "measured.quantity": "IC50",
    "test.result": "> 500 nM"
  },
  {
    "compound.smiles": "Cc1cnc(Nc2ccc(C(=O)NC3CCCCC3)cc2)nc1-c1ccc(OC(F)(F)F)cc1",
    "measured.quantity": "IC50",
    "test.result": "2.2 nM"
  }
]

The following molecules each have a reported value; give each one's IC50.
1. Cc1ccc(CN(C)Cc2ccccc2)cc1NC(=O)c1ccc(Nc2ncc(C)c(C)n2)cc1
2. CCc1cnc(Nc2ccc(C(=O)Nc3c(C)cccc3C)cc2)nc1-c1ccc(OC(F)(F)F)cc1

1: 101 nM; 2: 5.3 nM

----------
- procedure.summary: Clearance in Sprague-Dawley rat at 5 mg/kg, po
- Format: ADME, organism-based
- Design: dose 5 mg/kg, route oral
- particulars: in vivo
measured.quantity: CL/F
Number first, unit second: that is the form wanted.

What value of measured CL/F is listed for Cc1cnc(Nc2ccc(C(=O)Nc3c(C)cccc3C)cc2)nc1-c1ccc(OC(F)(F)F)cc1 ?
46.6 mL/min/kg

----------
- procedure.summary: Mean residence time in Sprague-Dawley rat at 5 mg/kg, po
- Type: ADME, organism-based
- Set-up: dose 5 mg/kg, route oral
- particulars: in vivo
measured.quantity: MRT
Number first, unit second: that is the form wanted.

What value of measured MRT is listed for Cc1cnc(Nc2ccc(C(=O)Nc3c(C)cccc3C)cc2)nc1-c1ccc(OC(F)(F)F)cc1 ?
5.1 h

----------
- procedure.summary: AUC in Sprague-Dawley rat at 1 mg/kg, iv
- Format: ADME, organism-based
- Set-up: dose 1 mg/kg, route intravenous
- particulars: plasma
measured.quantity: AUC (ng·h/mL)
Numbers only, in ng·h/mL.

What value of measured AUC is listed for Cc1cnc(Nc2ccc(C(=O)Nc3c(C)cccc3C)cc2)nc1-c1ccc(OC(F)(F)F)cc1 ?
915

----------
- tested.target: Sonic hedgehog protein (Mus musculus)
- procedure.summary: Inhibition of SHH signaling pathway in mouse NIH3T3 cells measured after 48 hrs by Gli-luciferase reporter assay
pIC50: −log10 of the molar value.
Returns one of yes or no; yes when pIC50 is >= 8.

[
  {
    "compound.smiles": "Cc1cnc(N(C)c2ccc(C(=O)Nc3c(C)cccc3C)cc2)nc1-c1ccc(OC(F)(F)F)cc1",
    "qualitative.label": "yes"
  },
  {
    "compound.smiles": "Cc1ccc(-c2cnn(C)c2)cc1NC(=O)c1ccc(Nc2ncc(C)c(-c3ccc(OC(F)(F)F)cc3)n2)cc1",
    "qualitative.label": "yes"
  },
  {
    "compound.smiles": "Cc1cc(-c2ccc(OC(F)(F)F)cc2)nc(Nc2ccc(C(=O)Nc3c(C)cccc3C)cc2)n1",
    "qualitative.label": "yes"
  },
  {
    "compound.smiles": "Cc1cccc(C)c1NC(=O)c1ccc(Nc2ncc(F)c(-c3ccc(OC(F)(F)F)cc3)n2)cc1",
    "qualitative.label": "yes"
  },
  {
    "compound.smiles": "Cc1cnc(Nc2ccc(C(=O)Nc3c(C)cccc3C)cc2)nc1-c1ccc(OC(F)(F)F)cc1",
    "qualitative.label": "yes"
  }
]

Form field: pIC50 at least 8? Entry: Cc1ccccc1NC(=O)c1ccc(Nc2ncc(C)c(-c3ccc(OC(F)(F)F)cc3)n2)cc1
yes

Form field: pIC50 at least 8? Entry: Cc1cnc(Nc2ccc(C(=O)Nc3c(C)cccc3C)cc2)nc1-c1ccc(N2CCOCC2)cc1
no

----------
- procedure.summary: Cmax in Sprague-Dawley rat at 5 mg/kg, po
- Type: ADME, organism-based
- Set-up: dose 5 mg/kg, route oral
- particulars: in vivo
measured.quantity: Cmax (ng/mL)
One number for each entry, in ng/mL.

What value of measured Cmax is listed for Cc1cnc(Nc2ccc(C(=O)Nc3c(C)cccc3C)cc2)nc1-c1ccc(OC(F)(F)F)cc1 ?
342

----------
- tested.target: Sonic hedgehog protein (Mus musculus)
- procedure.summary: Inhibition of SHH signaling pathway in mouse NIH3T3 cells measured after 48 hrs by Gli-luciferase reporter assay
measured.quantity: IC50 (nM)
Answers are plain numbers, in nM.

The following compounds each have a reported value; give each one's IC50.
1. Cc1cnc(Nc2ccc3[nH]ncc3c2)nc1-c1ccc(OC(F)(F)F)cc1
2. Cc1cccc(C)c1NC(=O)c1ccc(Nc2cc(-c3ccc(OC(F)(F)F)cc3)ccn2)cc1

1. 125
2. 1.6

The following compounds each have a reported value; give each one's IC50.
1. Cc1cccc(C)c1NC(=O)c1ccc(Nc2ncc(C3CC3)c(-c3ccc(OC(F)(F)F)cc3)n2)cc1
2. Cc1cnc(Nc2ccc(C(=O)Nc3c(C)cccc3C)cc2)nc1-c1ccc(C#N)cc1
3. Cc1cnc(Nc2ccc(C(=O)Nc3c(C)cccc3C)cc2)nc1-c1ccoc1
4. Cc1cnc(Nc2ccc(C(=O)Nc3c(C)cccc3C)cc2)nc1-c1cnn(C)c1

1: 1.3; 2: 2.8; 3: 15.7; 4: 10.6

The following compounds each have a reported value; give each one's IC50.
1. CS(=O)(=O)c1ccc(C(=O)Nc2ccc(Cl)c(-c3ccccn3)c2)c(Cl)c1
2. Cc1cccc(C)c1NC(=O)c1ccc(Nc2cccc(-c3ccc(OC(F)(F)F)cc3)n2)cc1
3. Cc1cccc(C)c1NC(=O)c1ccc(Nc2nccc(-c3ccc(OC(F)(F)F)cc3)n2)cc1
4. Cc1cccc(C)c1NC(=O)c1ccc(Nc2nc(C)c(C)c(-c3ccc(OC(F)(F)F)cc3)n2)cc1

1: 7.2; 2: 23.4; 3: 1.2; 4: 1.6
